Please respond with reported IC50 for every item in the list.
- Assay Target: carboxypeptidase A (Bos taurus)
- Construct: carboxypeptidase A purified from bovine pancreas; purchased Sigma Chemical Co; host or cells: bovine pancreas
- Sequence (P00730 111-419): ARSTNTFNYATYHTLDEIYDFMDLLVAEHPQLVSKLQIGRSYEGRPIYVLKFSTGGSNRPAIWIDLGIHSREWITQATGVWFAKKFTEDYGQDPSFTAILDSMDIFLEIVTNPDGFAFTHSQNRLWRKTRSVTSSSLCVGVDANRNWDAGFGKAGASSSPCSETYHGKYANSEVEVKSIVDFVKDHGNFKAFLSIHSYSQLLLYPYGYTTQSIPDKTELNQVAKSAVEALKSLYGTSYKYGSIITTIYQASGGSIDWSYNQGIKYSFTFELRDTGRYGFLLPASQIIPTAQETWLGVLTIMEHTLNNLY
- Assay Text: Inhibition of the action of carboxypeptidase A
- Type: biochemical
- Condition Info: carboxypeptidase A purified from bovine pancreas, 37°C, 30 minutes, pH 7.5; read-out: CP-A inhibition IC50 (converted)

Answer with the recorded IC50 for the compound listed here: O=C(O)[C@H](Cc1c[nH]cn1)NCCN[C@@H](Cc1c[nH]cn1)C(=O)O
> 595 µM

Answer with the recorded IC50 for the compound listed here: O=C(O)[C@H](Cc1c[nH]cn1)NCCN1CCC[C@H]1C(=O)O
> 675 µM

Answer with the recorded IC50 for the compound listed here: CCOC(=O)[C@H](Cc1ccccc1)NCCN[C@@H](Cc1c[nH]cn1)C(=O)O
390 µM

Answer with the recorded IC50 for the compound listed here: O=C(O)[C@H](Cc1ccccc1)NCCN[C@@H](Cc1c[nH]cn1)C(=O)O
24.3 µM

Answer with the recorded IC50 for the compound listed here: NCCCC[C@H](NCCN[C@@H](Cc1c[nH]cn1)C(=O)O)C(=O)O
> 611 µM

Answer with the recorded IC50 for the compound listed here: NCCC[C@H](NCCN[C@@H](Cc1c[nH]cn1)C(=O)O)C(=O)O
> 638 µM

Answer with the recorded IC50 for the compound listed here: O=C(O)C[C@H](NCCN[C@@H](Cc1c[nH]cn1)C(=O)O)C(=O)O
> 636 µM
